Molecular target: mab-3 (Y53C12B.5) (Caenorhabditis elegans)
Sequence: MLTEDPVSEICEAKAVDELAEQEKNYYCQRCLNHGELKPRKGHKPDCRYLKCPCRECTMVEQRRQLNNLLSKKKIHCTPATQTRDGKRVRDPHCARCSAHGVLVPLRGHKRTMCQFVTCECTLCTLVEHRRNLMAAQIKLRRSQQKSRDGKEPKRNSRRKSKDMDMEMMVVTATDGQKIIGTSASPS
parameter measured: binding signal (PBM E-score (-0.5 to 0.5))

Consider the reported binding signal (PBM E-score (-0.5 to 0.5)) for these sequences:
{"columns": ["query sequence", "test result"],
 "data": [
  ["ACGCAACA (double strand) [8-mer ACGCAACA]", 0.484],
  ["ATGCAACA (double strand) [8-mer ATGCAACA]", 0.482],
  ["TGGCAACA (double strand) [8-mer TGGCAACA]", 0.481],
  ["TCGCAACA (double strand) [8-mer TCGCAACA]", 0.499]
]}

Would you mind telling me what binding signal (PBM E-score (-0.5 to 0.5)) value was observed for ATGTTGCG (double strand) [8-mer ATGTTGCG] ? 0.499

Consider the sequence GATGTTGC (double strand) [8-mer GATGTTGC] and give its measured binding signal (PBM E-score (-0.5 to 0.5)). 0.495

// provenance: paper PMC4434323
